Test: NCI Yeast Anticancer Drug Screen. Data for the mlh1 strain (AID 171);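 note: 0% = growth of vehicle-treated control cultures of the same strain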
Details: S. cerevisiae mlh1 strain growth inhibition; at 11.0 µM; active compounds read high
This is part of a sample that, as a whole, favours compounds with a hit. Of some 79,000 tested, about 15% had one in any assay.
test_readout: growth inhibition (%)
The reply should be a number in %, with the unit left off.

Sample records with growth inhibition:
Cc1ccc2c(/C=C/c3ccc(N(C)C)cc3)ccnc2c1C : -19
O=C(/C(=C/c1ccccc1)CBr)c1ccccc1 : 67
CCOC(=O)C1=C(C)NC(C)=C(C(=O)OCC)C1c1ccc(Cl)cc1 : 44
COc1ccc(/C=C2\S/C(=N/Nc3nc(-c4ccccc4)cs3)NC2=O)cc1OC : 96
Cc1c(N=Nc2ccc(Cl)cc2)c(C)n(C2OC(CO)C(O)C(O)C2O)c(=S)c1C#N (centres undefined) : 8
CCCCOc1ccc(Nc2c3ccccc3nc3ccccc23)cc1 : 34
CCCCCCCCCCCCCCCCOCC(Cl)COP(=O)(O)OP(=O)(O)OCC1OC(n2cnc3c(N)ncnc32)C(O)C1O (centres undefined) : 53
O=C(Nn1c(-c2ccccc2)nc2ccccc2c1=O)c1ccc(Cl)cc1 : 26

input: Any idea what growth inhibition was measured for `Cc1ccc(N(C=O)c2c([N+](=O)[O-])cc([N+](=O)[O-])c3c2=[N+]([O-])CN=3)cc1` ?
output: 48

input: Any idea what growth inhibition was measured for CC1C=CN(N(C)C)C2=C1C(=O)c1cnccc1C2=O (centres undefined) ?
output: 40

input: Any idea what growth inhibition was measured for `CC(=O)CC[N+](C)(C)C` ?
output: -11

input: Any idea what growth inhibition was measured for `COc1ccc2c(Cc3c4ccccc4cc4ccccc34)cncc2c1O` ?
output: 15

input: Any idea what growth inhibition was measured for `N#C/C(=C1C=C/C(=N\O)C(Cl)=C\1)c1ccccc1` ?
output: 7

input: Any idea what growth inhibition was measured for `c1cc(Nc2ccc3c(c2)OCO3)c2cc(C3CCCCC3)ccc2n1` ?
output: -2

input: Any idea what growth inhibition was measured for `C[Si](C)(C)Cc1ccccc1C(=O)O` ?
output: 3

input: Any idea what growth inhibition was measured for COc1ccc(/C(=N/O)c2ccccc2C2=Nc3ccccc3C(NCc3ccccc3)O2)cc1C (centres undefined) ?
output: 0

input: Any idea what growth inhibition was measured for CSc1ccc2c(c1)C(N1CCN(C)CC1)Cc1ccccc1S2 (centres undefined) ?
output: -37

input: Any idea what growth inhibition was measured for O=C(O)NCC1CCCCC1 (tested in a mixture with another compound) ?
output: -7

input: Any idea what growth inhibition was measured for `Cc1ccnc(NS(=O)(=O)c2ccc(Nc3c4ccccc4nc4ccccc34)cc2)n1` ?
output: 54

input: Any idea what growth inhibition was measured for `CCc1nc2ccc(N=Nc3c(O)ccc4ccccc34)cc2[nH]1` ?
output: -18

input: Any idea what growth inhibition was measured for O=C1c2ccccc2C2CCC1c1ccccc12 (centres undefined) ?
output: 14

input: Any idea what growth inhibition was measured for `CCSc1c2ccccc2c(-c2nc(F)nc(F)n2)n1CCc1ccccc1` ?
output: -22

input: Any idea what growth inhibition was measured for `C=Cc1c(C)c(O)cc2c1-c1ccc(O)c(C)c1CC2` ?
output: 3

input: Any idea what growth inhibition was measured for CCC1SC(=S)N(c2ccc(Cl)cc2)C1=O (centres undefined) ?
output: -10

input: Any idea what growth inhibition was measured for `CN(NC(=O)/C(=C/C=C/c1ccccc1)NC(=O)c1ccccc1)C1=C(Cl)C(=O)[N+](c2ccccc2)=CC1` ?
output: 37

input: Any idea what growth inhibition was measured for CCOc1ccccc1N1C(=O)CC(Sc2ccccc2N)C1=O (centres undefined) ?
output: -33

input: Any idea what growth inhibition was measured for `O=c1[nH]c(=O)n(CCCO)cc1F` ?
output: -19

----------
Experiment: NCI Yeast Anticancer Drug Screen. Data for the bub3 strain (AID 167)
Conditions: S. cerevisiae bub3 mutant strain, at 33.0 µM, active compounds read high
Method: Growth inhibition of yeast strains with defined genetic alterations is measured as a screen for potential anti-cancer activity. Selected strains with alterations in DNA damage repair or cell cycle control were exposed to compounds and growth inhibition was measured relative to vehicle treated controls. The strain used in this assay is bub3
Compounds without any hit were thinned out: in the full panel of roughly 79,000, 15% have a hit.
test_readout: growth inhibition (%)
The reply should be a number in %, with the unit left off.

Sample records with growth inhibition:
CC[C@]1(O)C[C@H]2CN(CCc3c([nH]c4ccccc34)[C@@](C(=O)OC)(c3cc4c(cc3OC)N(C)[C@H]3[C@@](O)(C(=O)OC)[C@H](OC(C)=O)[C@]5(CC)C=CCN6CC[C@]43[C@@H]65)C2)C1 : -7
BrC/C=C/C[P+](c1ccccc1)(c1ccccc1)c1ccccc1 : 98

input: Any idea what growth inhibition was measured for `CC[C@@]1(OC(=O)CN(C)C)C(=O)OCc2c1cc1n(c2=O)Cc2cc3ccccc3nc2-1` ?
output: 90

input: Any idea what growth inhibition was measured for `c1cc2ccc3cc4ncccc4c4ccc(c1)c2c34` ?
output: 84

input: Any idea what growth inhibition was measured for `O=S(=O)(O)CC[S][Sn]([S]CCS(=O)(=O)O)([c]1ccccc1)[c]1ccccc1` ?
output: 96

input: Any idea what growth inhibition was measured for `COc1ccc(C(=O)NCCN(C)C)c2nc3ccccc3cc12` ?
output: 9

input: Any idea what growth inhibition was measured for `O=C(O)[C@H]1[C@@H](C2CCCCC2)O[C@@H](C2CCCCC2)O[C@H]1C(F)(F)F` ?
output: -2

input: Any idea what growth inhibition was measured for `CN(C)CCn1c2ccccc2c2nc3cc4ccccc4cc3nc21` ?
output: 72

input: Any idea what growth inhibition was measured for CCCCCCCCCCCCOC1C(COCCN2CCCC2)OC2OC(C)(C)OC21 (stereo unspecified) ?
output: 98

input: Any idea what growth inhibition was measured for `COc1ccc2nc(N/N=C/c3sccc3C)cc(C)c2c1` ?
output: 98

----------
Here, each record is paired with measured growth inhibition data.
Test: NCI Yeast Anticancer Drug Screen. Data for the mlh1 rad18 strain (AID 175)
Settings: S. cerevisiae mlh1 rad18 strain growth inhibition; at 50.0 µM (retest, dose inferred, filed as 5.0); active compounds read high
This is part of a sample that, as a whole, favours compounds with a hit. Of some 79,000 tested, about 15% had one in any assay.
The reply should be a number in %, with the unit left off.

COc1ccc(/C=C2\CCc3ccccc3C2=O)cc1OC : 91
Nc1nc(Nc2ccccc2)nc(Nc2ccccc2)n1 : 58
c1cc(Nc2ccc3c(c2)OCO3)c2cc(C3CCCCC3)ccc2n1 : 73
CNC(=O)OCc1c(COC(=O)NC)c(C)n(-c2ccc(Cl)c(Cl)c2)c1C : 98

input: Any idea what growth inhibition was measured for `CC(=O)O/N=C/c1c2ccccc2cc2ccccc12` ?
output: 92

input: Any idea what growth inhibition was measured for CC(C)c1ccc(C2NC(=S)NC3=C2c2ccccc2C3=O)cc1 (stereo unspecified) ?
output: 32

----------
Assay: NCI Yeast Anticancer Drug Screen. Data for the sgs1 strain (AID 173);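 note: 0% = growth of vehicle-only control cultures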
Conditions: S. cerevisiae sgs1 mutant, at 3.7 µM, active compounds read high
This is part of a sample that, as a whole, favours compounds with a hit. Of some 79,000 tested, about 15% had one in any assay.
test_readout: growth inhibition (%)
The reply should be a number in %, with the unit left off.

Sample records with growth inhibition:
c1cncc(C(Nc2cccc3cccnc23)Nc2cccc3cccnc23)c1 : 39
CCOC(=O)c1sc2[n+](c1C)C(=O)/C(=C/c1cc(OC)c(OC)c(OC)c1)S2 : 23
COc1ccc(CCN2C(=O)C=CC2=O)cc1OC : 5
O=C1OC(/C=C/c2ccccc2)Sc2ccccc21 (stereo unspecified) : 2
CC(=O)CC[N+](C)(C)C : -12

input: Any idea what growth inhibition was measured for `CCOc1nc(OCC)nc(-c2cccn2-c2ccccc2)n1` ?
output: 15

----------
Assay: NCI Yeast Anticancer Drug Screen. Data for the cln2 rad14 strain (AID 165);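 note: 0% = growth equal to vehicle treated cultures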
Details: S. cerevisiae cln2 rad14 strain, at 5.0 µM (retest, dose inferred, filed as 0.5)
Procedure: Growth inhibition of yeast strains with defined genetic alterations is measured as a screen for potential anti-cancer activity. Selected strains with alterations in DNA damage repair or cell cycle control were exposed to compounds and growth inhibition was measured relative to vehicle treated controls. The strain used in this assay is cln2 rad14
About 79,000 compounds went through this panel and 15% of them were active in at least one assay; those are over-represented in the sample as a whole. Active and inactive are the calls of the source. No stated cut-off is given here; in the data, active means growth inhibition above about 70%; inactive means the rest.
In this exercise, the only acceptable responses are YES (active), NO (inactive)

O=c1[nH]cc(F)c(=O)[nH]1 : NO
CN(C)CCNC(=O)c1cccc2nc3c4ccccc4c4ccccc4c3nc12 : NO

input: GET /call?item= `Clc1ccc(C(c2ccc(Cl)cc2)N2CCNCC2)cc1` returns the recorded outcome of this test.
output: NO

input: GET /call?item= `O=c1oc(C(C(F)(F)F)C(F)(F)F)nc2ccccc12` returns the recorded outcome of this test.
output: NO

input: GET /call?item= `COc1ccc(C(=O)OCCc2ccccc2)cc1` returns the recorded outcome of this test.
output: NO

input: GET /call?item= CCC1SC(=S)N(c2ccc(Cl)cc2)C1=O (stereo unspecified) returns the recorded outcome of this test.
output: NO
